- protocol_summary: self-splicing fitness, log relative to wild type (ln ratio); higher = more splicing; Tetrahymena group I intron in knt gene, E. coli kanamycin selection, DiMSum; sequences stand for … in CUCUCU…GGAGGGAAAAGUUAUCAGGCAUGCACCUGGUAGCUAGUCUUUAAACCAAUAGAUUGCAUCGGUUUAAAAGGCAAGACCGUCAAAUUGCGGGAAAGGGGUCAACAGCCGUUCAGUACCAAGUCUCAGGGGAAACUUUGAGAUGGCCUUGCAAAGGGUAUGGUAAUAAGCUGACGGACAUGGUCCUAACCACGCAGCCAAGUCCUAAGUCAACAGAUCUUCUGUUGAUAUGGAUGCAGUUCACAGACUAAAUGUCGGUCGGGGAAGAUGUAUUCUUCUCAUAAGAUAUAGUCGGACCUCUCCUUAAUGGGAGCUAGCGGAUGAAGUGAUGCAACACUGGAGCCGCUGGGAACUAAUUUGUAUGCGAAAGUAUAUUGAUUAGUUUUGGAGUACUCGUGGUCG;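 further: selection with 25 µg/mL kanamycin versus none on LB agar overnight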
- reported_conditions: 37 °C
assay_readout: self-splicing fitness (ln)
Lab note: jot the number down without any unit.

// known answers, use as guide
• CUAAAGCAAUAUUACGUGUU = -2.91
• GCCAAGCAAUAUUACGAUAA = -1.6
• GACGAGCAAUAUUACGCAGG = -1.6
• AAGGAGCAAUAUUACGUUAA = -1.69
• AUGAAGCAAUAUUACGAAGU = -0.533

Exercise: Report measured self-splicing fitness (ln); entry is "ACUGAGCAAUAUUACGAGGC"
Solution: -2.59

Exercise: Report measured self-splicing fitness (ln); entry is "CUGGAGCAAUAUUACGUGGA"
Solution: -2.63

----------
- protocol_summary: self-splicing fitness, log relative to wild type (ln ratio); higher = more splicing; Tetrahymena group I intron in knt gene, E. coli kanamycin selection, DiMSum; sequences stand for … in CUCUCU…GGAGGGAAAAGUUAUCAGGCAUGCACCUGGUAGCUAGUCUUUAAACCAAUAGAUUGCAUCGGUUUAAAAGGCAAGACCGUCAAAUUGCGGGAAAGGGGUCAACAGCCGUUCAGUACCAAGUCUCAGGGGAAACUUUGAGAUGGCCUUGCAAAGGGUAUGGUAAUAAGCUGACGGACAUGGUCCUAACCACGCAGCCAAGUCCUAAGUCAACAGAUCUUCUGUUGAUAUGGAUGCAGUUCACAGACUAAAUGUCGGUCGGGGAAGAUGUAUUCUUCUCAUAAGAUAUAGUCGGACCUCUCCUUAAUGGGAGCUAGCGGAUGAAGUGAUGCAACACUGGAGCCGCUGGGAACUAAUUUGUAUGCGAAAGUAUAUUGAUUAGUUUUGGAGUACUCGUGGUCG
- reported_conditions: 37 °C
Quick list: self-splicing fitness (ln) per entry.
Lab note: jot the number down without any unit.

// known answers, use as guide
• UUCAAGCAAUAUUACGUUAC = -2.72
• AUGCAGCAAUAUUACGAAUG = -2.51

Exercise: Report measured self-splicing fitness (ln); entry is "UAAUAGCAAUAUUACGCUGG"
Solution: -1.85

Exercise: Report measured self-splicing fitness (ln); entry is "UAGAAGCAAUAUUACGCAUA"
Solution: -1.36

Exercise: Report measured self-splicing fitness (ln); entry is "CUAGAGCAAUAUUACGCGUG"
Solution: -0.476

Exercise: Report measured self-splicing fitness (ln); entry is "GGGAAGCAAUAUUACGUACU"
Solution: -2.2

Exercise: Report measured self-splicing fitness (ln); entry is "CUGAAGCAAUAUUACGCGGC"
Solution: 0.053

Exercise: Report measured self-splicing fitness (ln); entry is "CGGCAGCAAUAUUACGUAGA"
Solution: -1.19

Exercise: Report measured self-splicing fitness (ln); entry is "AUACAGCAAUAUUACGUAUA"
Solution: -2.49

Exercise: Report measured self-splicing fitness (ln); entry is "ACCAAGCAAUAUUACGCUAA"
Solution: -2.33

Exercise: Report measured self-splicing fitness (ln); entry is "GUCAAGCAAUAUUACGAAGG"
Solution: -3.95

Exercise: Report measured self-splicing fitness (ln); entry is "UAAAAGCAAUAUUACGCACG"
Solution: -0.0988

Exercise: Report measured self-splicing fitness (ln); entry is "UUAAAGCAAUAUUACGCAGC"
Solution: -2.68

Exercise: Report measured self-splicing fitness (ln); entry is "UUAAAGCAAUAUUACGAUGC"
Solution: -2.2

Exercise: Report measured self-splicing fitness (ln); entry is "CCUUAGCAAUAUUACGCCGU"
Solution: -2.18

Exercise: Report measured self-splicing fitness (ln); entry is "CGGGAGCAAUAUUACGUUAG"
Solution: -1.9

Exercise: Report measured self-splicing fitness (ln); entry is "UCGUAGCAAUAUUACGUACA"
Solution: -1.73

Exercise: Report measured self-splicing fitness (ln); entry is "AUCUAGCAAUAUUACGUACG"
Solution: -1.04

Exercise: Report measured self-splicing fitness (ln); entry is "ACUCAGCAAUAUUACGUGCC"
Solution: -0.189

Exercise: Report measured self-splicing fitness (ln); entry is "GACCAGCAAUAUUACGAAAA"
Solution: -0.391

Exercise: Report measured self-splicing fitness (ln); entry is "AAUUAGCAAUAUUACGGAUC"
Solution: 0.186

Exercise: Report measured self-splicing fitness (ln); entry is "UUGGAGCAAUAUUACGGUGU"
Solution: -1.64

Exercise: Report measured self-splicing fitness (ln); entry is "GAUCAGCAAUAUUACGUCAU"
Solution: -0.393

----------
Quick list: self-splicing fitness (ln) per entry.
- protocol_summary: self-splicing fitness, log relative to wild type (ln ratio); higher = more splicing; Tetrahymena group I intron in knt gene, E. coli kanamycin selection, DiMSum; sequences stand for … in CUCUCU…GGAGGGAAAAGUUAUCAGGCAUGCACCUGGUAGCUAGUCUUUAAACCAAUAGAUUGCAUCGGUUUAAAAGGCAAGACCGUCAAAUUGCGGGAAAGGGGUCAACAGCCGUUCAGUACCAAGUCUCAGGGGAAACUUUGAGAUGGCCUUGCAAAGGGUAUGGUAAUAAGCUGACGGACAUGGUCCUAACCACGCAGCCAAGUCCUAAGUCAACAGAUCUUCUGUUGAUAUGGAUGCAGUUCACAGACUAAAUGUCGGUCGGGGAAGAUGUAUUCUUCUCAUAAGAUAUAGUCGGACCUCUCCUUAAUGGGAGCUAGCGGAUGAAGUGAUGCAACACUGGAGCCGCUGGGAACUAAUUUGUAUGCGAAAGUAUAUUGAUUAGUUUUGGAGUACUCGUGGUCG
- reported_conditions: 30 °C
Lab note: jot the number down without any unit.

// known answers, use as guide
* CGUGAGCAAUAUUACGGCGG | 0.333
* GGUCAGCAAUAUUACGUCCA | -1.63
* CGUAAGCAAUAUUACGCGAA | -3.5
* ACUGAGCAAUAUUACGACAU | -2.11
* UGGUAGCAAUAUUACGCCCG | 0.0173

Exercise: Report measured self-splicing fitness (ln); entry is "AUGUAGCAAUAUUACGGUGG"
Solution: -3.1

Exercise: Report measured self-splicing fitness (ln); entry is "AUCGAGCAAUAUUACGCGCG"
Solution: -2.29

Exercise: Report measured self-splicing fitness (ln); entry is "ACUUAGCAAUAUUACGGUCA"
Solution: -1.88

----------
- protocol_summary: self-splicing fitness, log relative to wild type (ln ratio); higher = more splicing; Tetrahymena group I intron in knt gene, E. coli kanamycin selection, DiMSum; sequences stand for … in CUCUCU…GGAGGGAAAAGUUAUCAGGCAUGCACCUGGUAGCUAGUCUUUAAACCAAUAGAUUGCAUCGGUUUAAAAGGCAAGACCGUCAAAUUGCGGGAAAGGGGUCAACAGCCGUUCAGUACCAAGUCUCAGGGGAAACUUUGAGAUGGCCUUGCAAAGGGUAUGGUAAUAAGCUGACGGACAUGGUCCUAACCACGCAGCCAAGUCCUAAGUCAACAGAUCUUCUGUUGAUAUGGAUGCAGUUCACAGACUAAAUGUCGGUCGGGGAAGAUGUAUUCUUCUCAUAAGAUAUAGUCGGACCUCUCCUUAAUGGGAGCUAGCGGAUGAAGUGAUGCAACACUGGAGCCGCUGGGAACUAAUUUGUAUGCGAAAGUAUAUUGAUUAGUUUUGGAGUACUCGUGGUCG
- reported_conditions: 30 °C
Quick list: self-splicing fitness (ln) per entry.

// known answers, use as guide
* AUUGAGCAAUAUUACGUAUU | -4.59
* CGUUAGCAAUAUUACGGAUU | -2.33
* AUAUAGCAAUAUUACGAUCC | -0.6
* CGUAAGCAAUAUUACGAGCA | -1.84
* UCGCAGCAAUAUUACGGACA | -1.38
* UUGUAGCAAUAUUACGGGCU | -2.88
* UCUAAGCAAUAUUACGAUAU | -3.99
* GCCCAGCAAUAUUACGAUCC | -0.561
* GUUAAGCAAUAUUACGUCUA | -0.524
* AUUGAGCAAUAUUACGAGGC | -3.05

Exercise: Report measured self-splicing fitness (ln); entry is "GGACAGCAAUAUUACGCCAU"
Solution: -1.98

Exercise: Report measured self-splicing fitness (ln); entry is "UUGAAGCAAUAUUACGGAGA"
Solution: -0.684

Exercise: Report measured self-splicing fitness (ln); entry is "GCCUAGCAAUAUUACGCGUG"
Solution: -4.17

Exercise: Report measured self-splicing fitness (ln); entry is "UCUAAGCAAUAUUACGACAC"
Solution: -3.7

Exercise: Report measured self-splicing fitness (ln); entry is "AUAUAGCAAUAUUACGCUAA"
Solution: -1.87

Exercise: Report measured self-splicing fitness (ln); entry is "AAUUAGCAAUAUUACGCGGA"
Solution: -1.56

Exercise: Report measured self-splicing fitness (ln); entry is "CAUAAGCAAUAUUACGCCUA"
Solution: -2.46
